Where these numbers come from: ChEMBL document CHEMBL1123760

The compounds listed here are annotated with their MIC.
- Tested on: Candida albicans
- experimentSummary: In vitro antifungal activity against Candida albicans
- Assay type: functional
- testContext: Candida albicans; read-out: MIC

Some compounds with recorded MIC:
CC(O)(c1ccc(F)cc1)C(O)(Cn1ccnc1)c1ccccc1Cl (stereo unspecified) | > 100 µg/mL
CCCC(O)(Cn1cncn1)C(=O)c1ccc(Cl)cc1Cl (stereo unspecified) | > 100 µg/mL

Now let's try a different one.
Incoming: Kindly indicate its recorded MIC. Item: O=S1O[C@H](c2ccc(Cl)cc2)[C@](Cn2cncn2)(c2ccc(Cl)cc2Cl)O1 (stereo partly specified)
Outgoing: > 100 µg/mL

* * *

- System: Aspergillus fumigatus
- experimentSummary: In vitro antifungal activity against Aspergillus fumigatus
- Assay type: functional
- testContext: Aspergillus fumigatus; read-out: MIC
The molecules listed here are annotated with their MIC.

O=C1O[C@H](c2ccccc2Cl)[C@@](Cn2cncn2)(c2ccccc2Cl)O1 | > 100 µg/mL

Incoming: Kindly indicate its recorded MIC. Item: CC(C)[C@H]1OS(=O)O[C@@]1(Cn1cncn1)c1ccc(Cl)cc1 (stereo not given in full)
Outgoing: > 100 µg/mL

* * *

- Tested on: Candida albicans
- experimentSummary: In vitro antifungal activity against Candida albicans
- Format: functional
- testContext: Candida albicans; read-out: MIC
The compounds listed here are annotated with their MIC.

CC(C)C(=O)C(O)(Cn1cncn1)c1ccc(Cl)cc1 (stereo in doubt; 36) | 100 µg/mL

Incoming: Kindly indicate its recorded MIC. Item: `O=C1O[C@H](c2ccccc2Cl)[C@@](Cn2cncn2)(c2ccccc2Cl)O1`
Outgoing: > 100 µg/mL

Incoming: Kindly indicate its recorded MIC. Item: `O=C1O[C@H](c2ccc(Cl)cc2Cl)[C@@](Cn2cncn2)(c2ccc(Cl)cc2Cl)O1`
Outgoing: > 100 µg/mL

Incoming: Kindly indicate its recorded MIC. Item: `CC(C)[C@H]1OC(=O)O[C@]1(Cn1cncn1)c1ccc(Cl)cc1Cl`
Outgoing: 100 µg/mL

Incoming: Kindly indicate its recorded MIC. Item: O=C(c1cccs1)C(O)(Cn1ccnc1)c1ccc(Cl)cc1 (stereo not given)
Outgoing: > 100 µg/mL

Incoming: Kindly indicate its recorded MIC. Item: O=C(c1ccc(Cl)cc1Cl)C(O)(Cn1cncn1)c1ccc(F)cc1 (stereo not given)
Outgoing: 100 µg/mL

Incoming: Kindly indicate its recorded MIC. Item: CC(C)C(=O)C(O)(Cn1cnnc1)c1ccc(Cl)cc1Cl (stereo not given)
Outgoing: > 100 µg/mL

Incoming: Kindly indicate its recorded MIC. Item: `O=C1O[C@H](c2ccccc2)[C@@](Cn2cncn2)(c2ccccc2Cl)O1`
Outgoing: > 100 µg/mL

Incoming: Kindly indicate its recorded MIC. Item: CC(C)(C)C(=O)C(O)(Cn1cncn1)c1ccc(Cl)cc1Cl (stereo not given)
Outgoing: > 100 µg/mL

Incoming: Kindly indicate its recorded MIC. Item: Cc1ccc(C(O)C(O)(Cn2cncn2)c2ccc(C)cc2)cc1 (stereo not given)
Outgoing: > 100 µg/mL

* * *

The compounds listed here are annotated with their MIC.
- Tested on: Aspergillus fumigatus
- experimentSummary: In vitro antifungal activity against Aspergillus fumigatus
- Format: functional
- testContext: Aspergillus fumigatus; read-out: MIC

Some compounds with recorded MIC:
OC(c1ccc(Cl)cc1Cl)C(O)(Cn1cncn1)c1ccc(Cl)cc1Cl (stereo not given) | > 100 µg/mL
O=C(c1ccc(Cl)cc1Cl)C(O)(Cn1cnnc1)c1ccc(Cl)cc1 (stereo not given) | > 100 µg/mL
CC(C)C(O)(Cn1cncn1)C(C)(O)c1ccc(Cl)cc1 (stereo not given) | 50 µg/mL
O=C(c1ccc(F)cc1)C(O)(Cn1cnnc1)c1ccc(F)cc1 (stereo not given) | > 100 µg/mL

Incoming: Kindly indicate its recorded MIC. Item: CC(O)(c1ccc(F)cc1)C(O)(Cn1ccnc1)c1ccccc1Cl (stereo not given)
Outgoing: 100 µg/mL

Incoming: Kindly indicate its recorded MIC. Item: O=C(c1ccccc1Cl)C(O)(Cn1cncn1)c1ccc(Cl)cc1Cl (stereo not given)
Outgoing: > 100 µg/mL

Incoming: Kindly indicate its recorded MIC. Item: CCCCC(O)(Cn1cncn1)C(=O)c1ccccc1Cl (stereo not given)
Outgoing: 50 µg/mL

Incoming: Kindly indicate its recorded MIC. Item: CC(C)C(O)C(O)(Cn1cncn1)c1ccc(Cl)cc1 (stereo in doubt; 100)
Outgoing: > 100 µg/mL

Incoming: Kindly indicate its recorded MIC. Item: Cc1ccc(C(O)C(O)(Cn2cncn2)c2ccc(C)cc2)cc1 (stereo not given)
Outgoing: > 100 µg/mL

Incoming: Kindly indicate its recorded MIC. Item: O=S1O[C@H](c2ccc(Cl)cc2)[C@@](Cn2cncn2)(c2ccc(Cl)cc2Cl)O1 (stereo not given in full)
Outgoing: 25 µg/mL

Incoming: Kindly indicate its recorded MIC. Item: OC(Cc1ccc(Cl)cc1)(c1ccc(F)cc1)C(O)(Cn1cncn1)c1ccc(Cl)cc1 (stereo not given)
Outgoing: > 100 µg/mL

Incoming: Kindly indicate its recorded MIC. Item: `O=C(c1ccc(Cl)cc1Cl)[C@](O)(Cn1cncn1)c1ccc(Cl)cc1Cl`
Outgoing: > 100 µg/mL

Incoming: Kindly indicate its recorded MIC. Item: `O=C1O[C@H](c2ccc(Cl)cc2Cl)[C@@](Cn2cncn2)(c2ccc(Cl)cc2Cl)O1`
Outgoing: > 100 µg/mL

* * *

- Tested on: Candida albicans
- experimentSummary: In vitro antifungal activity against Candida albicans
- Format: functional
- testContext: Candida albicans; read-out: MIC
The compounds listed here are annotated with their MIC.

Some compounds with recorded MIC:
O=C(c1ccc(F)cc1)C(O)(Cn1cncn1)c1ccccc1Cl (stereo not drawn) | 100 µg/mL
OC(Cn1cncn1)(c1ccc(Cl)cc1Cl)C(O)(c1ccc(F)cc1)c1cccs1 (stereo not drawn) | > 100 µg/mL
O=C(c1ccc(F)cc1)C(O)(Cn1cnnc1)c1ccc(F)cc1 (stereo not drawn) | > 100 µg/mL
O=C(c1ccc(Cl)cc1)C(O)(Cn1cnnc1)c1ccc(Cl)cc1 (stereo not drawn) | > 100 µg/mL
CC(=O)C(O)(Cn1cncn1)c1ccc(Cl)cc1Cl (stereo not drawn) | > 100 µg/mL

Incoming: Kindly indicate its recorded MIC. Item: O=C(c1ccc(Cl)cc1)C(O)(Cn1cncn1)c1ccccc1Cl (stereo not drawn)
Outgoing: > 100 µg/mL

Incoming: Kindly indicate its recorded MIC. Item: O=C(c1ccccc1Cl)C(O)(Cn1ccnc1)c1ccccc1Cl (stereo not drawn)
Outgoing: > 100 µg/mL

Incoming: Kindly indicate its recorded MIC. Item: CCCCC(O)(Cn1cncn1)C(=O)c1ccccc1Cl (stereo not drawn)
Outgoing: > 100 µg/mL

* * *

- Test system: Aspergillus fumigatus
- experimentSummary: In vitro antifungal activity against Aspergillus fumigatus
- Assay type: functional
- testContext: Aspergillus fumigatus; read-out: MIC
The compounds listed here are annotated with their MIC.

O=C(c1ccc(F)cc1)C(O)(Cn1cnnc1)c1ccc(Cl)cc1Cl (stereo not drawn) | > 100 µg/mL
CCCC(O)C(O)(Cn1cncn1)c1ccc(Cl)cc1 (stereo in doubt; 107) | > 100 µg/mL

Now let's try a different one.
Incoming: Kindly indicate its recorded MIC. Item: CC(O)(c1ccc(Cl)cc1)C(O)(Cn1ccnc1)c1ccc(Cl)cc1 (stereo not drawn)
Outgoing: > 100 µg/mL

* * *

- Tested on: Candida albicans
- experimentSummary: In vitro antifungal activity against Candida albicans
- Assay type: functional
- testContext: Candida albicans; read-out: MIC
propertyLabel: MIC

CCCC(=O)C(O)(Cn1cncn1)c1ccc(Cl)cc1Cl (stereo not given) | 50 µg/mL
OC(c1ccc(Cl)cc1Cl)C(O)(Cn1cncn1)c1ccc(Cl)cc1 (stereo not given) | 100 µg/mL

Incoming: Kindly indicate its recorded MIC. Item: CC(O)(c1ccc(F)cc1)C(O)(Cn1ccnc1)c1ccc(Cl)cc1 (stereo not given)
Outgoing: > 100 µg/mL

Incoming: Kindly indicate its recorded MIC. Item: CC(C)C(C)(O)C(O)(Cn1cncn1)c1ccc(Cl)cc1Cl (stereo in doubt; 169)
Outgoing: > 100 µg/mL

Incoming: Kindly indicate its recorded MIC. Item: COc1ccccc1C(O)C(O)(Cn1cncn1)c1ccccc1OC (stereo not given)
Outgoing: > 100 µg/mL

Incoming: Kindly indicate its recorded MIC. Item: `O=C1O[C@H](c2ccc(F)cc2)[C@@](Cn2cncn2)(c2ccc(Cl)cc2Cl)O1`
Outgoing: 50 µg/mL

Incoming: Kindly indicate its recorded MIC. Item: COc1ccccc1C(=O)C(O)(Cn1cncn1)c1ccccc1OC (stereo not given)
Outgoing: > 100 µg/mL

Incoming: Kindly indicate its recorded MIC. Item: O=C(c1ccccc1)C(O)(Cn1cncn1)c1ccc(Cl)cc1Cl (stereo not given)
Outgoing: > 100 µg/mL

Incoming: Kindly indicate its recorded MIC. Item: OC(c1ccc(F)cc1)C(O)(Cn1cncn1)c1ccc(Cl)cc1 (stereo in doubt; 103)
Outgoing: > 100 µg/mL

Incoming: Kindly indicate its recorded MIC. Item: OC(c1ccccc1Cl)C(O)(Cn1ccnc1)c1ccccc1Cl (stereo not given)
Outgoing: > 100 µg/mL

Incoming: Kindly indicate its recorded MIC. Item: O=C(c1ccco1)C(O)(Cn1cncn1)c1ccco1 (stereo not given)
Outgoing: > 100 µg/mL

Incoming: Kindly indicate its recorded MIC. Item: `O=C(c1ccc(Cl)cc1Cl)[C@@](O)(Cn1cncn1)c1ccc(Cl)cc1Cl`
Outgoing: 50 µg/mL

Incoming: Kindly indicate its recorded MIC. Item: CC(C)C(O)C(O)(Cn1cncn1)c1ccc(Cl)cc1Cl (stereo not given)
Outgoing: > 100 µg/mL

Incoming: Kindly indicate its recorded MIC. Item: OC(c1ccc(Cl)cc1Cl)C(O)(Cn1ccnc1)c1ccc(Cl)cc1Cl (stereo not given)
Outgoing: 50 µg/mL

Incoming: Kindly indicate its recorded MIC. Item: CC(O)(c1ccc(Cl)cc1)C(O)(Cn1cncn1)c1ccc(F)cc1 (stereo not given)
Outgoing: > 100 µg/mL

Incoming: Kindly indicate its recorded MIC. Item: CC(O)(c1ccc(Cl)cc1)C(O)(Cn1cncn1)c1ccc(Cl)cc1Cl (stereo in doubt; 175)
Outgoing: > 100 µg/mL

Incoming: Kindly indicate its recorded MIC. Item: `O=C1O[C@H](c2ccccc2)[C@@](Cn2cncn2)(c2ccc(Cl)cc2Cl)O1`
Outgoing: 100 µg/mL

Incoming: Kindly indicate its recorded MIC. Item: CCCCC(O)(c1ccccc1)C(O)(Cn1cncn1)c1ccc(Cl)cc1Cl (stereo not given)
Outgoing: > 100 µg/mL

Incoming: Kindly indicate its recorded MIC. Item: OC(Cn1cncn1)(c1ccc(F)cc1)C(O)(c1ccccc1)c1ccc(F)cc1 (stereo in doubt; 165)
Outgoing: > 100 µg/mL

Incoming: Kindly indicate its recorded MIC. Item: OC(c1ccccc1Cl)C(O)(Cn1cncn1)c1ccccc1 (stereo not given)
Outgoing: > 100 µg/mL
